Recorded values, source patent US11673866B2.

Target: ERα (Homo sapiens, UniProt P03372)
Sequence (P03372 whole entry, species assumed): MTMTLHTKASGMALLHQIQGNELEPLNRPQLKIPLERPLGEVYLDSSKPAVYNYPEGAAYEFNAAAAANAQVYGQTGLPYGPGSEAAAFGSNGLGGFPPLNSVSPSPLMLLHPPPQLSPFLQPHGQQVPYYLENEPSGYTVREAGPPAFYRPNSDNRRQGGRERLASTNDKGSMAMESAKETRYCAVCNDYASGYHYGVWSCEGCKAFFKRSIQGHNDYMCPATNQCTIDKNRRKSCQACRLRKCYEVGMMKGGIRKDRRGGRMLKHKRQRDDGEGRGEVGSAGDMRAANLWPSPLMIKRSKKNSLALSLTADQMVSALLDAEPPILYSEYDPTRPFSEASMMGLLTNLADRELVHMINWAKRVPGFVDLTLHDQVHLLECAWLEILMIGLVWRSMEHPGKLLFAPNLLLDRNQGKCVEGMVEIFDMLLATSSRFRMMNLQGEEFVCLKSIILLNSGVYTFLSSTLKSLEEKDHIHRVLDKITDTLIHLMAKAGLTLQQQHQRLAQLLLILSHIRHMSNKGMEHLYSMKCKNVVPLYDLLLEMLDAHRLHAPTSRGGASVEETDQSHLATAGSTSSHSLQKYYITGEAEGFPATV
Assay: Relative binding affinity (RBA) to estrogen receptor alpha, radiometric measurement
Details: relative value to 100% for E2 by radiometric measurement
quantity_kind: RBA ERα (%)
Numbers only; they are read as %.

Some entries whose results are on file:
>  <compound>
Oc1ccc(-n2nc3ccc(O)cc3c2Br)c(Br)c1 [IndBr-o-Br]

>  <RBA ERα [%]>
1.40

$$$$
>  <compound>
Cc1cc(O)ccc1-n1nc2ccc(O)cc2c1Cl [IndCl-o-Me]

>  <RBA ERα [%]>
0.43

$$$$
>  <compound>
Oc1ccc(-n2nc3ccc(O)cc3c2F)c(Br)c1 [IndF-o-Br]

>  <RBA ERα [%]>
0.37

$$$$
>  <compound>
Oc1ccc(-n2nc3ccc(O)cc3c2F)c(Cl)c1 [IndF-o-Cl]

>  <RBA ERα [%]>
0.27

$$$$
>  <compound>
Cc1cc(O)ccc1-n1nc2ccc(O)cc2c1F [IndF-o-Me]

>  <RBA ERα [%]>
0.11

$$$$

Consider the additional compound presented here.
Report RBA ERα for Cc1cc(-n2nc3ccc(O)cc3c2Cl)ccc1O [IndCl-m-Me]
0.13
